# Tested on: Fibroblast
# ASSAY COMMENT: Multiplex assay against human fibroblast
# Assay type: toxicity, cell-based
# SETTINGS: 12 h, 1 µM, compound concentration 1 uM, replicate 1
REPORTED ENDPOINT: Population Fragmented Nuclei (%)
State the result as a value with its unit after it.

Here are 4 compounds together with their reported answers.
CN1C[C@H](C(=O)N[C@]2(C)O[C@@]3(O)[C@@H]4CCCN4C(=O)[C@H](Cc4ccccc4)N3C2=O)C[C@@H]2c3cccc4[nH]cc(c34)C[C@H]21.CS(=O)(=O)O [DIHYDROERGOTAMINE MESYLATE] | 13%
Cc1sc2c(c1C)C(c1ccc(Cl)cc1)=N[C@H](CC(=O)OC(C)(C)C)c1nnc(C)n1-2 | 15%
OCCCNc1cc(-c2ccnc(Nc3cccc(Cl)c3)n2)ccn1 | 15%
Cc1nn(C)c2nc(NNC(=O)Nc3cc(Cl)nc(Cl)c3)cc(C(C)C)c12 | 15%

Query: Would you kindly share the measured Population Fragmented Nuclei (%) for COc1ccc2[nH]c(I)c(CCNC(C)=O)c2c1 [IODOMELATONIN] ?
Result: 15%

Query: Moving on to the next compound: Nc1nc(-c2ccco2)c2cnn(Cc3ccccc3F)c2n1
Result: 10%

Query: Try this compound next: CCCCCCNC(=O)Nc1ccc(S(=O)(=O)Nc2ccc(CCNC[C@H](O)COc3ccc(O)cc3)cc2)cc1 [L-755507]
Result: 27%

Query: Next record, please: CN(C)C(=O)Cn1cc(-c2ccc(-c3nnc4ccccn34)cc2)cn1
Result: 18%

Query: Proceed to COc1cc2nc(N3CCN(C(=O)c4ccco4)CC3)nc(N)c2cc1OC.Cl [PRAZOSIN HYDROCHLORIDE]
Result: 22%

Query: Repeat with C[C@@H]1CC(=O)Nc2cccc(-c3ccc4c(c3)c(-c3cnn(C)c3)nn4C)c2N1
Result: 20%

Query: Next entry: CC(C)C[C@H](CO)Nc1nc(S[C@@H](C)c2ccccc2)nc2nc(N)sc12 [AZD-8797]
Result: 23%

Query: Same for CCn1c(-c2nc3cc(C(=O)N4CCCC(N)C4)ccc3n2C)cc2ccccc21.Cl (configuration not stated)
Result: 17%

====

# Test system: U2OS
# ASSAY COMMENT: Multiplex assay against U2OS
# Type: toxicity, cell-based
# SETTINGS: human, 12 h, 10 µM, compound concentration 10 uM, replicate 2
Criterion: Population Mitotic Cells (%) meeting or surpassing 20%. Met: Yes. Not met: No.

S=C(NCCCc1c[nH]cn1)NCCCN(Cc1ccc(Cl)c(Cl)c1)c1ccc(Br)cn1 | Yes
Cn1cc(C(=O)OCC2CCN(CCNS(C)(=O)=O)CC2)c2ccccc21 | Yes
COc1cc(OC2CCN(C(C)=O)CC2)ccc1C(=O)N1CCC(N2C(=O)OCc3ccccc32)CC1 | No
CN(C)C(=O)Cn1cc(-c2ccc(-c3nnc4ccccn34)cc2)cn1 | No
CCc1nn2c(C)cc(C)nc2c1Cc1ccc(-c2nnc(C3CCNCC3)o2)cc1 | Yes
Cc1c(Cc2ccc3ccccc3n2)c2cc(F)ccc2n1CC(=O)O [TIMAPIPRANT] | Yes
COc1cc2nc(N3CCN(C(=O)COc4c(OC)cccc4C(C)C)CC3)nc(N)c2cc1OC.Cl.Cl | Yes
COc1c(Nc2ccc(S(C)(=O)=O)nc2C)ncnc1OC1CCN(C(=O)OC(C)C)CC1 [ADP-597] | No

Query: Has COc1cc(C(=O)N2CC[C@@H](O)[C@@H](N)C2)cc2nc(-c3cc4ccccc4n3CC3CC3)n(C)c12.Cl a recorded Population Mitotic Cells (%) greater than or equal to 20%?
Result: Yes

Query: Try this compound too: Nc1nc(CC(=O)Nc2ccc(CCNC[C@H](O)c3ccccc3)cc2)cs1 [MIRABEGRON]
Result: Yes

Query: Item: CN1CCN(c2ccc(Nc3c4ccccc4nc4ccccc34)cc2)CC1.Cl.Cl.O
Result: No

Query: Next record, please: CCCCC[C@H](O)/C=C/[C@H]1[C@H](O)CC(=O)[C@@H]1CCCCCCC(=O)O [ALPROSTADIL]
Result: Yes

Query: Please answer likewise for CN1C[C@H](C(=O)N[C@]2(C)O[C@@]3(O)[C@@H]4CCCN4C(=O)[C@H](Cc4ccccc4)N3C2=O)C[C@@H]2c3cccc4[nH]cc(c34)C[C@H]21.CS(=O)(=O)O [DIHYDROERGOTAMINE MESYLATE]
Result: No

Query: Then CN1CCC(C(=O)c2cccc(NC(=O)c3c(F)cc(F)cc3F)n2)CC1 ?
Result: Yes

Query: Try this compound next: O=c1nc2[nH]c3ccccc3nc-2c(=O)[nH]1 [ALLOXAZINE]
Result: No

Query: Could you do the same for CSc1nc(NC2CCCC2)c([N+](=O)[O-])c(NC2CCCC2)n1 [GS-39783] , please?
Result: No

Query: Query COc1cc(Nc2ncc3c(n2)-c2ccc(Cl)cc2C(c2c(F)cccc2OC)=NC3)ccc1C(=O)O [ALISERTIB] next
Result: Yes

====

# Tested on: U2OS
# ASSAY COMMENT: Multiplex assay against U2OS
# Format: toxicity, cell-based
# SETTINGS: human, 12 h, 10 µM, compound concentration 10 uM, replicate 1
# Population Mitotic Cells (%) >= 30% gives t, anything below gives f

Completed entries (count: 5):
Cc1c(Cc2ccc3ccccc3n2)c2cc(F)ccc2n1CC(=O)O [TIMAPIPRANT] | f
O=C(NCCNCC(O)COc1ccc(O)cc1)N1CCOCC1.O=C(NCCNCC(O)COc1ccc(O)cc1)N1CCOCC1.O=C(O)/C=C/C(=O)O (centres undefined) [XAMOTEROL FUMARATE] | f
O=c1ccc2ccc(OCCCCN3CCN(c4cccc5sccc45)CC3)cc2[nH]1 [BREXPIPRAZOLE] | f
C[C@H](NC(=O)CNC(=O)c1cccc(Cl)c1)c1ccccc1 | t
Cc1ccc(OCC(O)C(C)NC(C)C)c2c1CCC2.Cl (centres undefined) | t

Query: Given the entry COc1cc(Nc2ncc3c(n2)-c2ccc(Cl)cc2C(c2c(F)cccc2OC)=NC3)ccc1C(=O)O [ALISERTIB] , answer whether its Population Mitotic Cells (%) meets or surpasses 30%.
Result: f

Query: Now consider Cc1nn(C)c2nc(NNC(=O)Nc3cc(Cl)nc(Cl)c3)cc(C(C)C)c12 and answer again.
Result: f

Query: Here is the next molecule: CCCCC[C@H](O)/C=C/[C@H]1[C@H](O)CC(=O)[C@@H]1CCCCCCC(=O)O [ALPROSTADIL]
Result: f

Query: Similarly, Nc1nc(-c2ccco2)c2cnn(Cc3ccccc3F)c2n1 ?
Result: f

====

# Tested on: HEK-293T
# ASSAY COMMENT: Multiplex assay against HEK293T
# Format: toxicity, cell-based
# SETTINGS: human, 12 h, 10 µM, compound concentration 10 uM, replicate 1
REPORTED ENDPOINT: Population Healthy Nuclei (%)
The reply should contain only the number, in %.

Reference set, count: 5
C=CCN1C[C@H](C(=O)N(CCCN(C)C)C(=O)NCC)C[C@@H]2c3cccc4[nH]cc(c34)C[C@H]21 | 76
Cc1cc(O)c(-c2ccc([C@@H](C)CN(C)C)cc2)c2c1[nH]c(=O)c1sccc12 | 44
O=c1nc2[nH]c3ccccc3nc-2c(=O)[nH]1 | 71
CN1CCN(c2ccc(Nc3c4ccccc4nc4ccccc34)cc2)CC1.Cl.Cl.O | 74
COc1cc(OC2CCN(C(C)=O)CC2)ccc1C(=O)N1CCC(N2C(=O)OCc3ccccc32)CC1 | 77

Query: Consider the compound shown here: COc1c(Nc2ccc(S(C)(=O)=O)nc2C)ncnc1OC1CCN(C(=O)OC(C)C)CC1 What is its recorded Population Healthy Nuclei (%)?
Result: 75

Query: Same read-out for Cc1sc2c(c1C)C(c1ccc(Cl)cc1)=N[C@H](CC(=O)OC(C)(C)C)c1nnc(C)n1-2 ?
Result: 76

Query: Item: CC(C)C[C@H](CO)Nc1nc(S[C@@H](C)c2ccccc2)nc2nc(N)sc12
Result: 71

Query: Repeat with Cc1cc(NC(=O)NCCN2CCC(O)(Cc3ccccc3)CC2)c2ccccc2n1
Result: 81

Query: // next record CN(C)C/C=C/C(=O)Nc1ccc(C(=O)N2CCCC(Nc3ncc(Cl)c(-c4c[nH]c5ccccc45)n3)C2)cc1 (configuration not stated)
Result: 57

Query: Same lookup for O=C(NCCNCC(O)COc1ccc(O)cc1)N1CCOCC1.O=C(NCCNCC(O)COc1ccc(O)cc1)N1CCOCC1.O=C(O)/C=C/C(=O)O (configuration not stated) [XAMOTEROL FUMARATE] , please.
Result: 83

Query: Then this compound: COCCn1c(C)c(C)s/c1=N\C(=O)C1C(C)(C)C1(C)C
Result: 52

Hey, just so you know, these numbers are from ChEMBL document CHEMBL5058577.
